Data provenance: the supplement of paper PMC10065799

# Test system: Fer (mouse);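 note: 11-residue human phosphosite peptides and single-mutation variants displayed on the E. coli surface, counted by deep sequencing, each peptide's frequency after selection divided by its frequency in the unselected input library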;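 note: frequency after pTyr selection over input frequency; kinase dosed for 20-30% of maximal phosphorylation in three min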
# TEST_METHOD_NOTES: phosphorylation enrichment, bacterial display (enrichment ratio); higher = better substrate or ligand; peptides without Tyr show the background
Classification field: 1.0 = phosphorylation enrichment at or over 0.6; 0.0 = phosphorylation enrichment under 0.6.

[
  {
    "MONOMER_SEQUENCE": "DGKYSYLKVGH [GRM3_Y480_G475D]",
    "SYSTEM_TESTED": "Fer (mouse)",
    "CLASS_NAME": 0.0
  },
  {
    "MONOMER_SEQUENCE": "KWHREYNSKFV [RICTOR_Y835_YF]",
    "SYSTEM_TESTED": "Fer (mouse)",
    "CLASS_NAME": 0.0
  },
  {
    "MONOMER_SEQUENCE": "LQRCKYSHMEP [TEX45_Y434]",
    "SYSTEM_TESTED": "Fer (mouse)",
    "CLASS_NAME": 0.0
  },
  {
    "MONOMER_SEQUENCE": "LPKEQYLCTKE [AFG3L2_Y614_Y616C]",
    "SYSTEM_TESTED": "Fer (mouse)",
    "CLASS_NAME": 0.0
  },
  {
    "MONOMER_SEQUENCE": "RKETFYTLSCR [GUCY2C_Y681]",
    "SYSTEM_TESTED": "Fer (mouse)",
    "CLASS_NAME": 1.0
  },
  {
    "MONOMER_SEQUENCE": "LERYIYNREEY [HLA-DPB1_Y59_F64Y]",
    "SYSTEM_TESTED": "Fer (mouse)",
    "CLASS_NAME": 0.0
  }
]
